Data origin, for the record: patent US20240132431A1

So I've got a bunch of compounds here, and I need their ASMS ratio (%) n = 2 values.
Assay Target: Bcl-2 protein (Recombinant Human Bcl-2 Protein) (Homo sapiens, UniProt P10415)
Construct: purchased Novus NBP2-34889
Sequence (P10415 whole entry): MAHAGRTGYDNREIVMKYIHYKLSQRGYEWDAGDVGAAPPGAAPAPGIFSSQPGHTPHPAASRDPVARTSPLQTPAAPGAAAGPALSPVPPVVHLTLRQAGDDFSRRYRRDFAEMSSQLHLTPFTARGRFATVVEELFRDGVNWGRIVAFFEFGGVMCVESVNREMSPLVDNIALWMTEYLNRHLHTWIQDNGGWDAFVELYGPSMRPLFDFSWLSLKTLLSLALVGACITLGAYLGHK
Test Description: Binding evaluation of mixture library compounds to Bcl-2 using AS-MS (affinity selection mass spectrometry)
Run Conditions: AS-MS on the mixture of 1200 library compounds; ASMS Ratio(%)=(A−C)/B×100; replicate n = 2
One number for each entry, in %.

Some entries whose results are on file:
| Compound | Assay Target | Unit Label | ASMS ratio (%) n = 2 |
| --- | --- | --- | --- |
| CCOc1cccc(-c2ccc(CN3CCN(c4ccc(C(=O)N(CC)CC)cc4)CC3)cc2F)c1 | Bcl-2 protein (Recombinant Human Bcl-2 Protein) (Homo sapiens, UniProt P10415) | % | −10.2 |
| CCOc1cccc(-c2cc(OC)c(CN3CCN(c4ccc(C(=O)N(C)CC56CC7CC(CC(C7)C5)C6)nn4)CC3)c(OC)c2)c1 | Bcl-2 protein (Recombinant Human Bcl-2 Protein) (Homo sapiens, UniProt P10415) | % | −7.1 |
| CCOc1cccc(-c2ccc(CN3CCN(c4ccc(C(=O)N(C)CC56CC7CC(CC(C7)C5)C6)nn4)CC3)cc2C)c1 | Bcl-2 protein (Recombinant Human Bcl-2 Protein) (Homo sapiens, UniProt P10415) | % | 28.6 |
| CCOc1cncc(-c2cc(CN3CCN(c4ccc(C(=O)Nc5ccc(OC)cc5)cc4)CC3)cc(OC(C)C)c2)c1 | Bcl-2 protein (Recombinant Human Bcl-2 Protein) (Homo sapiens, UniProt P10415) | % | 4.4 |
| CCOc1cncc(C#Cc2cncc(C(=O)N3CCN(c4ccc(C(=O)Nc5ccc(OC)cc5)cc4)CC3)c2)c1 | Bcl-2 protein (Recombinant Human Bcl-2 Protein) (Homo sapiens, UniProt P10415) | % | 0.9 |

# batch: return ASMS ratio (%) n = 2 for each of the 7 compounds below
1. CCOc1cccc(-c2cc(CN3CCN(c4ccc(C(=O)Nc5ccc(OC)cc5)cc4)CC3)cc(OCC)c2)c1
2. CCOc1cncc(-c2cc(OC)c(CN3CCN(c4ccc(C(=O)Nc5ccc(OC)cc5)nn4)CC3)c(OC)c2)c1
3. CCOc1cncc(-c2cc(C(=O)N3CCN(c4ccc(C(=O)Nc5ccc(OC)cc5)nn4)CC3)cc(C(F)(F)F)c2)c1
4. CCOc1cccc(-c2ccc(C(C)N3CCN(c4ccc(C(=O)N(C)CC56CC7CC(CC(C7)C5)C6)cc4)CC3)c(F)c2)c1 (centres unmarked)
5. CCOc1cccc(-c2cnn(-c3cc(C(=O)N4CCN(c5ccc(C(=O)N(CC)CC)nn5)CC4)cc(C(F)(F)F)c3)c2)c1
6. CCOc1cccc(-c2cnn(-c3cc(C(=O)N4CCN(c5ccc(C(=O)N(C)CC67CC8CC(CC(C8)C6)C7)cc5)CC4)cc(C(F)(F)F)c3)c2)c1
7. CCOc1cccc(-c2ccc(C(C)N3CCN(c4ccc(C(=O)N(C)CC56CC7CC(CC(C7)C5)C6)cc4)CC3)cc2)c1 (centres unmarked)

−4.2
−0.4
3.2
25.2
0.0
−0.3
−5.9

# batch: return ASMS ratio (%) n = 2 for each of the 2 compounds below
1. CCOc1cncc(-c2ccc(CN3CCN(c4ccc(C(=O)N(CC)CC)cc4)CC3)c(CC)c2)c1
2. CCOc1cncc(C#Cc2cc(C(=O)N3CCN(c4ccc(C(=O)N(CC)CC)cc4)CC3)cc(C(F)(F)F)c2)c1

1. 0.6
2. 0.0
